Values were extracted from paper PMC10609273.

# System: P-gp
# assay-procedure: Bidirectional permeability in Caco-2 cells
# Format: in vitro ADME
# condition-description: human, Caco-2, with LY335979 5 µM, by P-gp inhibitor LY335979; read-out: reduction of the efflux ratio
experimental-endpoint: efflux ratio at 60 min, 5 µM

In [3]: df
Out[3]:
                              record_smiles         experimental_endpoint  observed
0  O=C(CCCCCCCn1cc(CCCF)nn1)N1[C@@H]2[C@H](O)[C@@H](O)[C@@H](O)[C@@H](CO)[C@@H]21  efflux ratio at 60 min, 5 µM         3

---

# assay-procedure: Bidirectional permeability in Caco-2 cells
# Type: in vitro ADME
# condition-description: human, Caco-2; 5 µM, alone; read-out: Ratio (B/A), efflux ratio
# strict inequality: efflux ratio at 60 min, 5 µM < 4 yields met, everything else yields not met

                                   compound  category_label
0  NS(=O)(=O)OC[C@@H]1C[C@@H](n2ccc3c(N[C@H]4CCc5ccccc54)ncnc32)C[C@@H]1O [Pevonedistat, reference compound]         not met
1  O=C(CCCCCCCn1cc(CCCF)nn1)N1[C@@H]2[C@H](O)[C@@H](O)[C@@H](O)[C@@H](CO)[C@@H]21         not met
2  Nc1cc(N2CCCCC2)nc(N)[n+]1[O-] [Minoxidil, reference compound]             met
3  CC(C)NCC(O)COc1cccc2ccccc12 (centres unmarked) [Propranolol, reference compound]             met

---

# Tested on: BCRP
# assay-procedure: Bidirectional permeability in Caco-2 cells
# Type: in vitro ADME
# condition-description: human, Caco-2, with KO143 5 µM; 5 µM, + 5 µM KO143 (BCRP inhibitor)
experimental-endpoint: Papp A→B at 60 min, 5 µM (nm/s)

>>> print(df.to_string())
                                   compound  study_target  measure_unit  observed
0  O=C(CCCCCCCn1cc(CCCF)nn1)N1[C@@H]2[C@H](O)[C@@H](O)[C@@H](O)[C@@H](CO)[C@@H]21 [AGAL]          BCRP          nm/s       1.5

---

# Tested on: BCRP
# assay-procedure: Bidirectional permeability in Caco-2 cells
# Type: in vitro ADME
# condition-description: human, Caco-2, with KO143 5 µM; 5 µM, + 5 µM KO143 (BCRP inhibitor)
experimental-endpoint: Papp B→A at 60 min, 5 µM (×10⁻⁶ cm/s)

>>> print(df.to_string())
                                   compound  study_target  measure_unit  observed
0  O=C(CCCCCCCn1cc(CCCF)nn1)N1[C@@H]2[C@H](O)[C@@H](O)[C@@H](O)[C@@H](CO)[C@@H]21 [AGAL]          BCRP    ×10⁻⁶ cm/s      1.31

---

# assay-procedure: LogD determination, miniaturized shake flask method
# Assay type: physicochemical
# condition-description: octanol/buffer (1:1); octanol/buffer pH 7.4 (1:1), 66.6 μM
experimental-endpoint: logD at 1 h

>>> df
                              record_smiles  experimental_endpoint  observed
0  O=C(CCCCCCCn1cc(CCCF)nn1)N1[C@@H]2[C@H](O)[C@@H](O)[C@@H](O)[C@@H](CO)[C@@H]21            logD at 1 h     -0.43
